experimental.target: Tyrosine-protein kinase ITK/TSK (Homo sapiens);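 note: mean percent inhibition of ITK from the GSK PKIS screen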
run.parameters: at 0.1 µM
measured.metric: inhibition

Here are 8 compounds together with their reported answers.
compound	inhibition
CS(=O)(=O)CCNCc1nc(-c2ccc3ncnc(Nc4ccc(F)c(Cl)c4)c3c2)cs1	1.06%
COc1cc2c(cc1Nc1nc(N3CCc4ccccc43)c3cc[nH]c3n1)N(C(=O)CN(C)C)CC2	0.83%
Fc1cccc(COc2ccc(Nc3ncnc4sc(-c5cccs5)cc34)cc2Cl)c1	0.84%
O=C1NC(=O)C(c2cccc(Cl)c2)=C1Nc1ccc(O)c(Cl)c1	0.25%
Cc1cccc(-c2n[nH]cc2-c2ccc3ncccc3n2)n1	0.38%
COc1ccc(-c2coc3ncnc(N)c23)cc1	1.41%
O=C(Nc1n[nH]c2nc(-c3ccco3)c(Br)cc12)C1CC1	3.8%
CC1=C(C(=O)Nc2ccc3[nH]ncc3c2)C(c2ccc(F)cc2)NC(=O)N1 (stereo not given)	0.65%

Hi, could you look up inhibition for each item in my list?
1. COc1cc2ncn(-c3cc(O[C@@H](C)c4ccccc4Cl)c(C(N)=O)s3)c2cc1OC
2. O=C1NC(=O)C(c2ccccc2Cl)=C1Nc1cccc(O)c1
3. CS(=O)(=O)CCN(CC#N)Cc1ccc(-c2ccc3ncnc(Nc4ccc(OCc5cccc(F)c5)c(Cl)c4)c3c2)o1
4. CCCN1CCC=C(c2ccc(Nc3nc(Nc4ccccc4C(N)=O)c4cc[nH]c4n3)c(C)c2)C1
5. Cc1ccc(C(=O)NC2CCCCC2)cc1-c1ccc(C(=O)NCC2CC2)cc1

Found:
0.13%
1.12%
-2.61%
1.99%
1.95%

Hi, could you look up inhibition for each item in my list?
1. NS(=O)(=O)c1ccc(N/N=C2\C(=O)Nc3ccc(C(=O)NCCc4c[nH]cn4)cc32)cc1
2. COc1ccc(-c2ccncc2)cc1C(N)=O

Found:
["1.78%", "1.95%"]

====

Field: inhibition. Provide a value for each of the compounds that follow.
experimental.target: Cyclin-dependent kinase 4 (Homo sapiens) (UniProt P11802)
Sequence (P11802 whole entry): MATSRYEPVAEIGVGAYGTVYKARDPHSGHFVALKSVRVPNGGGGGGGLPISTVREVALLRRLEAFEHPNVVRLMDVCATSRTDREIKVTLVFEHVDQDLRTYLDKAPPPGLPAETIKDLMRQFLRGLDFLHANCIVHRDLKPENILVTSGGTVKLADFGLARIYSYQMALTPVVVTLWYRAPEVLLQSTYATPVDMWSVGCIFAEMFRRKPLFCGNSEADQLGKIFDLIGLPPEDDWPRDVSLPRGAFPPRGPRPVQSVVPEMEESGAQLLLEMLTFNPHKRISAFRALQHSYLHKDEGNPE
run.parameters: at 0.1 µM
Description: GSK_PKIS: CDK4/cyclinD mean inhibition at 0.1 uM [Nanosyn]
One number for each entry, in %.

Here are 2 compounds together with their reported answers.
COc1cccc(-n2ncc3c(N/N=C/c4cccc(F)c4)ncnc32)c1 0.03
Cc1cccc(-c2n[nH]cc2-c2ccc3ncccc3n2)n1 -0.55

Hi, could you look up inhibition for each item in my list?
1. CS(=O)(=O)CCNCc1ccc(-c2ccc3ncnc(Nc4ccc(OCc5ccccc5)c(Cl)c4)c3c2)o1
2. Fc1cccc(COc2ccc(Nc3ncnc4cc(-c5ccc[nH]5)sc34)cc2Cl)c1

Found:
1. -0.14
2. -1.38

Hi, could you look up inhibition for each item in my list?
1. Cc1nnc(-c2ccc(C)c(-c3ccc(C(=O)Nc4cccc(C#N)c4)cc3)c2)o1
2. CCn1c(-c2nonc2N)nc2c(C#CC(C)(C)O)nc(CN3CCCC3)cc21

Found:
[0.95, 1.6]

Hi, could you look up inhibition for each item in my list?
1. COC(=O)Nc1nc2cc(Oc3ccc(NC(=O)Nc4cccc(C(=O)O)c4)cc3)ccc2[nH]1
2. CN1CCC(C(=O)Nc2n[nH]c3nnc(-c4ccccc4)cc23)CC1
3. CNC(=O)c1cncc(/C=C/c2c(Cl)cccc2Cl)c1
4. CCN1CCC(CC(=O)Nc2n[nH]c3nc(-c4cccs4)c(Br)cc23)CC1

Found:
1: -1.05; 2: 8.86; 3: 0.86; 4: 5.84

Data provenance: ChEMBL document CHEMBL1961873
